# method-description: soluble fraction after stress (log2 fold change); higher = more stays soluble; pooled small domains, quantitative proteomics
# reported-conditions: stress: 50 degC
The entries below come with measured soluble fraction (log2) values attached.
The answer should be a number; do not append a unit.

Sample answers from the record:
[[record]]
sequence_record = "HMESLSHRQKSIVDWVQKNGYASIERMAEQFEVSAQTIRRDVIELSERRILQRHHGGASLPAG"
measured_quantity = "soluble fraction (log2)"
value_reported = -0.0143

[[record]]
sequence_record = "HMPRVLSSYTLTLRHQPTAEAVALVRTLLSPAGSVEVKEDGRTLVVRDELAALSRIVGALRSFDH"
measured_quantity = "soluble fraction (log2)"
value_reported = -0.404

[[record]]
sequence_record = "HMIQTKKVTFTVEPTVNFEKINISGIEFKINSGSSITAIYEKNSHNFDEVLDFLKQKGVKILDIVTED"
measured_quantity = "soluble fraction (log2)"
value_reported = -0.118

[[record]]
sequence_record = "HMTPESSLHSGLGKILHDALTAKIQLTNFEAKFLSDMQSKYDLNGSFSWLSSKQQTTLEKILAKYGR"
measured_quantity = "soluble fraction (log2)"
value_reported = -0.841


Input: # query: soluble fraction (log2) of entry HMFDKVSVNNLAEAIGRLDGIYQDVLRLYYVHELPSKEIGKILNINHLTVNTRLKRAREKLFKMLKEE
Output: -2.57

Input: # query: soluble fraction (log2) of entry HMNIVINVDTPTFEQMKATYQAPGTLPAGASFHAKLKGVTVTGYTKSHKVMFQGALANQEAARWQ
Output: -0.92

Input: # query: soluble fraction (log2) of entry HMGFSLEQFGTDPDLKKIVENAFERIITASEGRIFKSDFSSNNSALPLEIFSFLIAVILLKLSGMN
Output: -0.142

Input: # query: soluble fraction (log2) of entry HMTSHYTVLGVKETDTIEMIRTHYRKLILQFHPDKNQHLTEEERKKLEVKVLQIREAYEKIKKEK
Output: -0.214

Input: # query: soluble fraction (log2) of entry HMEQINVTIQTEKGRIDKVLSEHLPNHSRSQIQQWLKEKHVTVNGETVRANYKVTAGDEIVVTIPEPEV
Output: 0.206

Input: # query: soluble fraction (log2) of entry HMIKRITDEQHPVDVDRLLVVTFTNAAASEMRERIGDAIEAALEKDPYNQHLQRQLTLVHNAQITTIDS
Output: -0.0115

----------
# method-description: soluble fraction after stress (log2 fold change); higher = more stays soluble; pooled small domains, quantitative proteomics
# reported-conditions: stress: 50 degC
The entries below come with measured soluble fraction (log2) values attached.
The answer should be a number; do not append a unit.

Sample answers from the record:
[[record]]
sequence_record = "HMDEEGDALDREYEDQIRLGDEAFDAEDWTSAQRAYTAALELRPDERYPKNRLRRLASLQEDV"
value_reported = 0.0779

[[record]]
sequence_record = "HMETGELQQILEDVFSKNIGIVQDKREAAFSILMGMIMAKSRGRADGALVSTLLKKKLTEFLATSDQVR"
value_reported = 0.0929

[[record]]
sequence_record = "HMSKQVDVVIYILENTKAADNTYIGTYRKTADGAGVSLDTATKVMRKLQENNFIKKVQNGVYQISPLIMM"
value_reported = -0.889


Could you now consider this next sequence?
Input: # query: soluble fraction (log2) of entry HMKLHFTINGVHYTWYKQFIRGIQIRELGNIPREDELYLDLPDGWKDDFIEDDEIVDLARPGVEHFISRAK
Output: -1.78
